- EXPERIMENTAL DETAILS: Inhibition of insulin receptor mediated mitogenesis of NIH3T3 cells
pIC50: −log10 of the molar value.
EXPERIMENTAL READOUT: pIC50

1: COc1ccc(Cc2cn(Cc3ccc(O)cc3)c(NC3=NC(=O)N(C)C3=O)n2)cc1
2: COc1ccc(Cc2nc(NC3=NC(=O)N(C)C3=O)n(C)c2Cc2ccc(O)cc2)cc1
Exercise: Task for the reader: decide whether 1 or 2 has the larger pIC50. Please indicate the selected item by its label.
Key: 1
(1: 5.01, 2: 3.62)
